# target.or.test.system: T1, Proleukin® (aldesleukin) (human, UniProt P60568 21-153, limits assumed)
# T1 construct: Variant of human wt IL-2 with C145S (C125S on mature IL-2); also called IL-2 (Proleukin®); human IL-2 (Proleukin)
# T1 sequence (P60568 other isoform, or with tags, fused parts or gaps limits assumed): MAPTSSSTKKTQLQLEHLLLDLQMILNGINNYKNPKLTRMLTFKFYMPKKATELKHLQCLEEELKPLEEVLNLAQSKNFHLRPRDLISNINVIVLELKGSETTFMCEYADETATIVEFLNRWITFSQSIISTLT
# protocol: ELISA, coated Proleukin, serially diluted supernatant

| binder | EC50, nM |
| --- | --- |
| Antibody No: 10 (antibody, human IgG1, kappa, N297A, V domains shown, VK M33L + A50S; HEK293F supernatant) VH: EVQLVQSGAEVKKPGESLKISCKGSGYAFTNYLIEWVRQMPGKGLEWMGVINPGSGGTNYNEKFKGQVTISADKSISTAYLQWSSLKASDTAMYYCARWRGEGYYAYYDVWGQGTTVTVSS VL: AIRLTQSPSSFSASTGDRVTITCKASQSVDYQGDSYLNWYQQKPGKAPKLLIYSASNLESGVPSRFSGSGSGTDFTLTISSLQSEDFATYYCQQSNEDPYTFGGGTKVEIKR | 0.35 |
| Antibody No: 33 (antibody, human IgG1, kappa, N297A, V domains shown, VK A50S; HEK293F supernatant) VH: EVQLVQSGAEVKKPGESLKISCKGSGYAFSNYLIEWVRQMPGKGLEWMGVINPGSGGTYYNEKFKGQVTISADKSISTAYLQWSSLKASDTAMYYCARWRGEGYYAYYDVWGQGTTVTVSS VL: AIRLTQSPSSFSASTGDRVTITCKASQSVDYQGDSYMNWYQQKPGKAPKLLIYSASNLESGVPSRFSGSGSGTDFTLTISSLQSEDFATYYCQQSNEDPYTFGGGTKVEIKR | 0.67 |

Where do these numbers come from? They come from patent US20210246200A1.
